- target_of_assay: T1, soluble human FcRn (human, UniProt P55899 24-297; P61769 21-119, biotinylated (Sulfo-NHS-LC-Biotin) in the ELISA; amine-coupled to CM5 chip in SPR)
- T1 construct: also called shFcRn; biotinylated shFcRn
- assay_procedure: ELISA, competitor human IgG
pIC50: −log10 of the molar value.
endpoint_name: pIC50

1 = QRFXTGHFPPLYPCNGP (Pen at 4; D-Pro at 9 and 10; disulfide; C-terminal amide) [Peptide No. 152]
2 = QRFXTGHFGALYPCNGP (Pen at 4; D-Ala at 10; disulfide; C-terminal amide) [Peptide No. 74]
Q. Hello, I am sorting some records. Could you say if 1 or 2 has the smaller pIC50 value? Choose, then provide that item's label.
A. 1

I = QRFXTGHFXGLYPCNGP (Pen at 4; Aib at 9; disulfide; C-terminal amide) [Peptide No. 54]
II = QRFXTGHFFPLYPCNGP (Pen at 4; D-Phe at 9; D-Pro at 10; disulfide; C-terminal amide) [Peptide No. 150]
Q. // select label with min value of measured pIC50 from [ I , II ] Refer to your chosen entry by its label in the reply.
A. I
(I: 4.77, II: 5.23)

The measurements presented in this section are drawn from patent US20070254831A1.
